Recorded IC50 for molecules tested on Cathepsin D (Homo sapiens, UniProt P07339), drawn from a number of studies.
Readout Kind: IC50 (µM)

Solved cases below.
NC1=N[C@@]2(CCO1)c1cc(NC(=O)c3ccc(F)cn3)ccc1Oc1c2cc(C2=CCOCC2)nc1F	358
CC1(C)C(N)=N[C@](C)(c2cc(/C=C(\F)c3cnc(OCCC(F)(F)F)cn3)ccc2F)CS1(=O)=O	90.5
COC(C)COc1cnc(/C(F)=C/c2ccc(F)c([C@]3(C)CS(=O)(=O)N(C)C(N)=N3)c2)cn1 (stereo partly drawn)	67.6
COc1ccc(C(=O)Nc2ccc3c(c2)[C@@]2(CCOC(N)=N2)c2cc(C4=CCOCC4)nc(F)c2O3)nc1	184
COc1cnc(C(=O)Nc2ccc3c(c2)[C@@]2(CCOC(N)=N2)c2cc(C#CC(C)(C)C)ncc2O3)cn1	452
CN1C(N)=N[C@](C)(c2cc(/C=C(\F)c3ccc(Br)cn3)ccc2F)CS1(=O)=O	11

1: Cc1ccc(CCN(C[C@H](O)[C@H](Cc2ccccc2)NC(=O)COc2cc(Cl)c(Cl)cc2Cl)C(=O)CCN2C(=O)c3ccccc3C2=O)cc1
2: CC#C[C@@H](CC)Oc1cnc(/C(F)=C/c2ccc(F)c([C@]3(C)CS(=O)(=O)C(C)(C)C(N)=N3)c2)cn1 (single isomer, unassigned)
3: COc1cnc(C(=O)Nc2ccc3c(c2)[C@@]2(CCOC(N)=N2)c2cc(C4=CCOCC4)nc(F)c2O3)cn1
Prompt line: Rank ascending by IC50. Provide the labels, sequenced as the question asks.
Response line: 1, 2, 3
(1: 0.229 µM, 2: 38.3 µM, 3: 400 µM)

I: C#C[C@H](C)Oc1cnc(/C(F)=C/c2ccc(F)c([C@@]3(C)N=C(N)N(C)S(=O)(=O)C3(C)C)c2)cn1
II: CN1C(N)=N[C@](C)(c2cc(/C=C(\F)c3cnc(Cl)cn3)ccc2F)CS1(=O)=O
Prompt line: Of the two listed items, I and II , which carries the larger IC50 figure? Write the label of whichever entry you select.
Response line: I
(I: 375 µM, II: 86.3 µM)

1: COc1nc(C2=CCOCC2)cc2c1Oc1ccc(NC(=O)c3ccc(Cl)cn3)cc1[C@@]21CCOC(N)=N1
2: CN1C(N)=N[C@](C)(c2cc(/C=C(\F)c3cnc(OCc4cocn4)cn3)cc(F)c2F)CS1(=O)=O
3: Cc1nc(COc2cnc(/C(F)=C/c3cc(F)c(F)c([C@]4(C)CS(=O)(=O)N(C)C(N)=N4)c3)cn2)c(C)o1
4: CN1C(N)=N[C@](C)(c2cc(/C=C(\F)c3cnc(OCC(F)(F)F)cn3)ccc2F)CS1(=O)=O
Prompt line: Please give the order of these molecules when sorted by IC50, largest value leading. Output spec: labels arranged per the requested ranking.
Response line: 1, 2, 3, 4
(1: 400 µM, 2: 69.8 µM, 3: 46.8 µM, 4: 29.1 µM)

a: CC1(c2cc(-c3cncnc3)ccc2F)COCC(N)=N1 (stereo not drawn)
b: C[C@]1(c2cc(/C=C(\F)c3cnc(OCC(F)F)cn3)ccc2F)N=C(N)[C@@]2(CF)CC[C@@H]1S2(=O)=O
Prompt line: Hi! Which is lower in terms of IC50, the first one a or the second one b ? Returns: label corresponding to the selected item.
Response line: a
(a: 34 µM, b: 196 µM)
